growth values, listed per item
tested on: HL-60(TB) leukemia; assay: NCI-60 one-dose screen, 48 h (100 = growth as untreated, 0 = no growth, -100 = all killed); settings: 10 µM unless noted
This is part of a sample that, as a whole, favours compounds with a hit. Of some 83,000 tested, about 20% had one in any assay.
Return type: number; implicit unit %.

### Prompt Return growth (reported value) for this molecule: N#CC1C(=O)SC2c3ccccc3C(=O)c3ccccc3C12 (centres undefined)
### Response 98.4

### Prompt Return growth (reported value) for this molecule: Nn1c(-c2ccc(Cl)cc2)nc2c(-c3ccc(Cl)cc3)nc3ccc(Cl)cc3c2c1=O
### Response 43.4

### Prompt Return growth (reported value) for this molecule: O=C1c2ccccc2-c2c1c1cccnc1c(=O)n2C[C@H](O)CO
### Response 48.8

### Prompt Return growth (reported value) for this molecule: COc1ccc(N2CCN(c3ccc(NC4=C(Cl)C(=O)c5ncccc5C4=O)cc3)CC2)cc1
### Response 53
